All values here come from PubChem BioAssay (NCI).

# Test system: MDA-MB-468 breast
# Experiment summary: NCI-60 one-dose screen, 48 h (100 = growth as untreated, 0 = no growth, -100 = all killed)
# Condition context: 10 µM unless noted
# Description: Growth inhibition of the MDA-MB-468 human Breast tumor cell line is measured as a screen for anti-cancer activity. Cells are grown in 96 well plates and exposed to the test compound for 48 hours. Compounds are tested at a single concentration, which is 10^-5 M for most compounds. The reported endpoint is percent growth (GI% or GIPRCNT), where numbers from 0 - 100% represent growth inhibition, and numbers from -100% - 0 represent cell death. […]
The panel holds about 83,000 compounds, 20% with a hit somewhere; the sample as a whole holds those more often.
Provide the reported growth of each item.
// units = %; emit number, no label

Please tell me: growth of CCCCCCCCCCCCCCCCNC(=S)N/N=C/c1ccc(O)cc1O , system MDA-MB-468 breast?
57.1

Please tell me: growth of COC(=O)CNC(=O)c1cccc(-c2cc(=O)c3c(OC)c(OC)c(OC)cc3o2)c1 , system MDA-MB-468 breast?
89.8

Please tell me: growth of O=C(NCCc1ccccc1)/C(=C\c1ccc(Cl)cc1Cl)NC(=O)c1ccccc1 , system MDA-MB-468 breast?
95.1

Please tell me: growth of Cn1c(=O)c2[nH]c(CCCCC(=O)O)nc2n(C)c1=O , system MDA-MB-468 breast?
121

Please tell me: growth of CCN1C(=O)N(CC)C2C1NN=c1s/c(=C\c3ccc(F)cc3)c(=O)n12 (centres undefined) , system MDA-MB-468 breast?
11.9

Please tell me: growth of O=C(c1ccc(F)c(F)c1Nc1ccc(I)cc1F)N1CC(O)([C@@H]2CCCCN2)C1 , system MDA-MB-468 breast?
25.2

Please tell me: growth of O=C(CC(CC(=O)c1ccccc1)c1ccccc1O)c1ccccc1 , system MDA-MB-468 breast?
100

Please tell me: growth of COc1cccc2c1C=CC1(O2)Oc2cccc(OC)c2C=C1C (centres undefined) , system MDA-MB-468 breast?
39.5

Please tell me: growth of COc1ccccc1-c1ccc2c(N)c(C(=O)c3ccc4c(c3)OCO4)sc2n1 , system MDA-MB-468 breast?
55.1

Please tell me: growth of C=CC(CC(c1ccccc1)(c1ccccc1)c1ccccc1)N(CC)CC (centres undefined) , system MDA-MB-468 breast?
30.5

Please tell me: growth of Clc1nc2ccc(Br)cc2cc1-c1nc2ccccc2[nH]1 , system MDA-MB-468 breast?
76.3

Please tell me: growth of CCCCCCCCCCCC[n+]1ccccc1 , system MDA-MB-468 breast?
-23.6

Please tell me: growth of Cc1cc(Nc2nc(-c3ccc(F)cc3)nc3ccccc23)n[nH]1 , system MDA-MB-468 breast?
58.2

Please tell me: growth of Nc1ccc(-c2csc(-n3[nH]c(=O)ccc3=O)n2)cc1 , system MDA-MB-468 breast?
99.3

Please tell me: growth of CC1CCC(n2cnc3c(Cl)ncnc32)O1 (centres undefined) , system MDA-MB-468 breast?
96.3

Please tell me: growth of COc1cc(CN(c2ccc(C)cc2)C2OC(=O)c3ccccc32)cc(OC)c1OC (centres undefined) , system MDA-MB-468 breast?
25

Please tell me: growth of Cc1cn(-c2cc(NC(=O)c3ccc(C)c(Nc4nccc(-c5cccnc5)n4)c3)cc(C(F)(F)F)c2)cn1 , system MDA-MB-468 breast?
37.2

Please tell me: growth of CC(=O)n1cc(C=O)c2ccccc21 , system MDA-MB-468 breast?
112

Please tell me: growth of CC(C)(C)N1CCC1C(N)=O (centres undefined) , system MDA-MB-468 breast?
108

Please tell me: growth of O=C(c1nc2ccccc2[nH]1)C1C(c2ccc([N+](=O)[O-])cc2)C2CC3CCCCC3N2[C@@]12C(=O)Nc1cc(Cl)ccc12 (some centres undefined) , system MDA-MB-468 breast?
-1.98

Please tell me: growth of CCc1ccc(-c2ccc(-n3nc(C)c4c(N)nc(Cc5ccccc5)nc43)cc2)cc1 , system MDA-MB-468 breast?
38.9

Please tell me: growth of CCOC(=O)Nc1ccc2c(ccn2C(=O)c2cccc(F)c2)c1 , system MDA-MB-468 breast?
34.5

Please tell me: growth of CCCCCCCCCCN=C(c1ccc(N(C)C)cc1)c1ccc(N(C)C)cc1 , system MDA-MB-468 breast?
-8.69

Please tell me: growth of C=CCN(/C=C/CN(CC=C)CC=C)CC=C , system MDA-MB-468 breast?
99.3

Please tell me: growth of O=C1O[C@H]([C@H](O)CO)C(O)=C1O , system MDA-MB-468 breast?
90

Please tell me: growth of NC1N=C(SCC(=O)N2CCN(c3cc4c(cc3F)c(=O)c(C(=O)O)cn4C3CC3)CC2)NC(=O)/C1=C/c1ccc(Cl)cc1 (centres undefined) , system MDA-MB-468 breast?
111

Please tell me: growth of CC1(C)OC(=O)C(=Cc2cccc(Br)c2)C(=O)O1 , system MDA-MB-468 breast?
111

Please tell me: growth of CCc1ccc(C(=O)/C=C/C23c4ccccc4C(c4ccccc42)C2C(=O)NC(=O)C23)cc1 (centres undefined) , system MDA-MB-468 breast?
-15.9

Please tell me: growth of O=c1c2cc(Cl)ccc2oc2ccc(OCCCCCN3CCCCC3)cc12 , system MDA-MB-468 breast?
59.9

---

# Test system: MDA-MB-468 breast
# Experiment summary: NCI-60 one-dose screen, 48 h (100 = growth as untreated, 0 = no growth, -100 = all killed)
# Condition context: 10 µM unless noted
The panel holds about 83,000 compounds, 20% with a hit somewhere; the sample as a whole holds those more often.
Assign class by growth: not lower than 70% means Met; lower than 70% means Not met.

Item Nc1ccccc1-c1n[nH]c(=O)[nH]c1=O with growth of 70% or above?
Met

Item C[C@@]1(CCC#N)[C@H]2CC[C@@H]3[C@H]4[C@H](C(=O)/C=C/c5cccnc5)CC[C@]4(C#N)CC[C@@]3(C)[C@]2(C)CC[C@H]1C(=O)/C=C/c1cccnc1 with growth of 70% or above?
Not met

Item C#CCO[C@H]1CC[C@H](OCC#C)[C@@H]2[C@H]1[C@H]1C[C@@H]3[C@@]4(C)CCC[C@@](C)(C(=O)OC)[C@@H]4CC[C@@]23C=C1C(C)C with growth of 70% or above?
Met

Item Cc1nc2ncccc2nc1Nc1ccc(S(=O)(=O)Nc2cncs2)cc1 with growth of 70% or above?
Met

Item COC(=O)/C=C1/SC(=Nc2cccc(OC)c2)N(CCc2c[nH]c3ccc(O)cc23)C1=O with growth of 70% or above?
Not met

Item O=C(c1cccs1)c1ccccc1Cc1ccccc1 with growth of 70% or above?
Met

Item COc1cc(/C=C/C(=O)c2ccccc2)cc(OC)c1OC with growth of 70% or above?
Not met

Item CC(=O)Nc1ccc2c(c1)C(N1CC3CCC(CC3)C1)c1ccccc1-2 (centres undefined) with growth of 70% or above?
Met

Item CN(C)c1nc(-c2cccs2)n2nc(-c3ccco3)cc2n1 with growth of 70% or above?
Not met

Item Clc1cccc(Cl)c1/C=C/c1cc(/C=C/c2c(Cl)cccc2Cl)[nH]n1 with growth of 70% or above?
Not met

Item COC(=O)c1cc(C(=O)OC)cc([N+](=O)[O-])c1 with growth of 70% or above?
Met

Item CN1CCN(Cc2ccc(NC(=O)c3[nH]ncc3Nc3ncnc4sc5c(c34)CCCC5)cc2)CC1 with growth of 70% or above?
Not met

Item Cc1ccc(S(=O)(=O)NCCCNc2nccc(-c3c(-c4ccccc4)nc4sccn34)n2)cc1 with growth of 70% or above?
Not met

---

# Test system: MDA-MB-468 breast
# Experiment summary: NCI-60 one-dose screen, 48 h (100 = growth as untreated, 0 = no growth, -100 = all killed)
# Condition context: 10 µM unless noted
Compounds without any hit were thinned out: in the full panel of roughly 83,000, 20% have a hit. Calls of active or inactive are those of the source. How the source made its calls: active means growth percent below 10; inactive means the rest.
Quantity name: growth

Please tell me: growth of COCCOC(C)C(/C=N/NC(N)=S)=N/NC(N)=S (centres undefined) , system MDA-MB-468 breast?
7.98% (active)

Please tell me: growth of Oc1ccc2c(=S)cc(-c3ccc(Br)cc3)oc2c1O , system MDA-MB-468 breast?
-2.5% (active)

Please tell me: growth of CN(CCCNC(=O)Cc1ccc2ccc3cccc4ccc1c2c34)CCCNc1cc(-c2ccc3ccccc3c2)nc2ccccc12 , system MDA-MB-468 breast?
-78.4% (active)

Please tell me: growth of CC1CC2Oc3ccc(Cl)cc3C(=O)N2O1 (centres undefined) , system MDA-MB-468 breast?
94.5% (inactive)

Please tell me: growth of O=C(Nc1ccc(-n2ccc3c(NC(=O)c4ccccc4)ncnc32)cc1)c1ccc(Cl)c(C(F)(F)F)c1 , system MDA-MB-468 breast?
-5.36% (active)

Please tell me: growth of N#Cc1c(-c2cccs2)cc(-c2cnccn2)nc1SCC(=O)NNC(=S)Nc1ccc(F)cc1 , system MDA-MB-468 breast?
122% (inactive)

Please tell me: growth of CCn1cc(Cc2cc(C(=O)Nc3cc4cc(OC)c(OC)cc4c(C)n3)ccc2Cl)cn1 , system MDA-MB-468 breast?
35.5% (inactive)

Please tell me: growth of CCN(CC)CCN(CCN(CC)CC)c1ccccc1 , system MDA-MB-468 breast?
92% (inactive)

Please tell me: growth of CN(C)CCN1C(=O)c2ccc3c4c(ccc(c24)C1=O)C(=O)N(CCN=C=S)C3=O , system MDA-MB-468 breast?
-88.8% (active)

Please tell me: growth of C/C(=C\CCc1ccsc1)CC/C=C(\C)CCCN1CCN(CCO)CC1 , system MDA-MB-468 breast?
7.83% (active)

Please tell me: growth of O=C(Nc1ccc(Cl)cc1)Nc1ccc(Cl)c(C(F)(F)F)c1 , system MDA-MB-468 breast?
10.3% (inactive)

Please tell me: growth of COc1cc(Nc2cc(C)nc(N3CCN(c4ccnc5cc(Cl)ccc45)CC3)n2)cc(OC)c1 , system MDA-MB-468 breast?
11.2% (inactive)

Please tell me: growth of CN1CCCC1c1cccnc1 (centres undefined) , system MDA-MB-468 breast?
97.1% (inactive)

Please tell me: growth of OC(c1ccc(F)c(C(F)(F)F)c1)c1cnccc1NC1CCCCC1 (centres undefined) , system MDA-MB-468 breast?
9.9% (active)

Please tell me: growth of Cc1ccc(-c2nc(/C=N/Nc3cc(C)nc4ccc(Cl)cc34)c(C)o2)cc1 , system MDA-MB-468 breast?
-76% (active)

Please tell me: growth of O=C1NC(=O)C(Cc2ccc(OCc3ccc(-c4ccc(Cl)cc4Cl)cc3)cc2)S1 (centres undefined) , system MDA-MB-468 breast?
14.3% (inactive)

Please tell me: growth of COc1ccc([C@H]2[C@H](O)C(=O)N2c2cc(OC)c(OC)c(OC)c2)cc1F , system MDA-MB-468 breast?
26.4% (inactive)

Please tell me: growth of Cn1cc(-c2nnc(-c3cn(C)c4ncccc34)s2)c2ccccc21 , system MDA-MB-468 breast?
12.6% (inactive)

Please tell me: growth of Cc1ccc(CSC(=N)N)cc1C , system MDA-MB-468 breast?
104% (inactive)
